target: Thyrotropin-releasing hormone receptor (Homo sapiens); experiment: qHTS for Small Molecule Agonists and Allosteric Enhancers of Human TRH Receptor: Primary Screen for Enhancers; conditions: TRHR cells, fluo-8 calcium fluorescence, EC20 TRH enhancement; at 2 µM; active compounds read high; also: 0% is about no effect
Hit rate of the full screen: of about 360,000 compounds, about 2,400 (0.67%) were called active. For the sample, actives were picked, then their nearest neighbours and some compounds at random.
In this section we review reported enhancement values for a set of compounds.
Report as a plain number; the unit % is understood.

Known enhancement results, listed for orientation:
[[record]]
compound = "CC(C)N(CC#CCC1(O)c2ccccc2-c2ccccc21)C(C)C"
measured_number = -0.877

[[record]]
compound = "CC(C)c1ccc(OCC(=O)N2CCN(C)CC2)c(Br)c1"
measured_number = -3.04

[[record]]
compound = "C/C(CCc1c[nH]c2ccccc12)=N\\O"
measured_number = 30.5

[[record]]
compound = "Cc1ccc(-n2c(/C=C/c3cccc(C(F)(F)F)c3)nc3ccccc3c2=O)cc1"
measured_number = -5.54

[[record]]
compound = "Cc1cccc(Cn2cccc(C(=O)Nc3ccc4c(c3)OCCO4)c2=O)c1"
measured_number = -1

[[record]]
compound = "O=C(c1cc(S(=O)(=O)N2CCOCC2)ccc1F)N1CCC2(CC1)OCCO2"
measured_number = 5.79

[[record]]
compound = "COc1ccc(CNCCc2c[nH]c3ccccc23)cc1OC"
measured_number = 8.12


We next turn to a different compound, shown below.
Inquiry: # input compound: CCOP(=S)(OCC)C(O)CCCCCn1c(=O)c(F)cn(C2CCCO2)c1=O (stereo not drawn) ; wanted: its enhancement
Reply text: 31.8
